# targetUnderTest: recombinant PRL-2 (Homo sapiens)
# Construct: 6xHis (N, cleaved yes); made in house; host or cells: E. coli One Shot BL21 Star
# experimentalProtocol: In vitro phosphatase assay (DiFMUP hydrolysis), PRL-2
# Assay type: biochemical
# experimentalContext: FDA-approved drug screen; activity compared to DMSO
quantityName: % Phosphatase Activity (compared to DMSO) PRL-2 (%)
Numbers only, in %.

COc1cc(C(=O)NS(=O)(=O)c2ccccc2C)ccc1Cc1cn(C)c2ccc(NC(=O)OC3CCCC3)cc12 [Zafirlukast]    66

Okay, here is my list. What is % Phosphatase Activity (compared to DMSO) PRL-2 for each of these?
1. CCOC(=O)c1ccc(C#Cc2ccc3c(c2)C(C)(C)CCS3)nc1 [Tazarotene]
2. O=C1NC(=O)[C@@H](c2cn3c4c(cccc24)CCC3)[C@@H]1c1c[nH]c2ccccc12 [Tivantinib (ARQ 197)]
3. NCCS(=O)(=O)O [Taurine]
4. Cc1noc(NS(=O)(=O)c2ccc(N)cc2)c1C [Sulfisoxazole]
5. O=C[C@H](O)[C@@H](O)[C@H](O)CO [Xylose]
6. CC1(C)[C@H](C(=O)O)N2C(=O)C[C@H]2S1(=O)=O [Sulbactam]
7. C/C(O)=C(\C#N)C(=O)Nc1ccc(C(F)(F)F)cc1 [Teriflunomide]
8. N[C@@H](CC(=O)N1CCn2c(nnc2C(F)(F)F)C1)Cc1cc(F)c(F)cc1F [Sitagliptin phosphate monohydrate]

Response line:
1439
83
77
95
102
91
98
120

---

For each record, write down the corresponding % Phosphatase Activity (compared to DMSO) PRL-2.
# targetUnderTest: recombinant PRL-2 (Homo sapiens)
# Construct: 6xHis (N, cleaved yes); made in house; host or cells: E. coli One Shot BL21 Star
# Sequence (Q12974 1-167): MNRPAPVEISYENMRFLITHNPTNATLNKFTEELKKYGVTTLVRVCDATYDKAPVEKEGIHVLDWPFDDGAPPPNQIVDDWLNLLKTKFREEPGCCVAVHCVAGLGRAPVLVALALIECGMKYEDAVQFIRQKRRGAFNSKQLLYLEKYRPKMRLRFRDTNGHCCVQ
# experimentalProtocol: In vitro phosphatase assay (DiFMUP hydrolysis), PRL-2
# Format: biochemical
# experimentalContext: FDA-approved drug screen; compared to DMSO
Answers are plain numbers, in %.

Okay, here is my list. What is % Phosphatase Activity (compared to DMSO) PRL-2 for each of these?
1. CC(C)NCC(O)c1ccccc1Cl.Cl (stereo not shown) [Clorprenaline HCl]
2. CC1(C)S[C@@H]2[C@H](NC(=O)C(C(=O)O)c3ccccc3)C(=O)N2[C@H]1C(=O)O (stereo partly shown) [Carbenicillin disodium]
3. CC(C)(C)Cn1c(N)nc2ccc(-c3[nH]c(C(C)(C)C)nc3-c3ccc(F)cc3)nc21 [LY2228820]
4. COc1ccc(C[C@@H](C)NC[C@H](O)c2ccc(O)c(NC=O)c2)cc1.COc1ccc(C[C@@H](C)NC[C@H](O)c2ccc(O)c(NC=O)c2)cc1.O=C(O)/C=C/C(=O)O [Formoterol Hemifumarate]
5. CN1C(CCl)Nc2cc(Cl)c(S(N)(=O)=O)cc2S1(=O)=O (stereo not shown) [Methyclothiazide]
6. CCOc1cc([C@@H](CS(C)(=O)=O)N2C(=O)c3cccc(NC(C)=O)c3C2=O)ccc1OC [Apremilast (CC-10004)]
7. O=C(O)CCCN1CCC(O[C@@H](c2ccc(Cl)cc2)c2ccccn2)CC1.O=S(=O)(O)c1ccccc1 [Bepotastine Besilate]

Response line:
[102, 101, 137, 106, 114, 78, 113]

---

# targetUnderTest: recombinant PRL-2 (Homo sapiens, UniProt Q12974)
# Construct: 6xHis (N, cleaved yes); made in house; host or cells: E. coli One Shot BL21 Star
# Sequence (Q12974 1-167): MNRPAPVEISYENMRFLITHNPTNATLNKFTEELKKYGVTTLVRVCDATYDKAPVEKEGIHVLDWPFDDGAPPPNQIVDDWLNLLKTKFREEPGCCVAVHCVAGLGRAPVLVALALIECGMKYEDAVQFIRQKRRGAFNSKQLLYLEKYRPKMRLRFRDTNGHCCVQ
# experimentalProtocol: In vitro phosphatase assay (DiFMUP hydrolysis), PRL-2
# Type: biochemical
Structures can show the parent of a compound that is named as a salt.
quantityName: % Phosphatase Activity (compared to DMSO) PRL-2 (%)
Answers are plain numbers, in %.

Use the examples below as a reference point.
CS(=O)(=O)CCNCc1ccc(-c2ccc3ncnc(Nc4ccc(OCc5cccc(F)c5)c(Cl)c4)c3c2)o1    207
Cc1cccc(C)c1OCC(C)N (stereo not drawn) [Mexiletine HCl]    106
Cc1cnc(C(=O)NCCc2ccc(S(=O)(=O)NC(=O)NC3CCCCC3)cc2)cn1 [Glipizide]    98
COC(=O)[C@H](c1ccccc1Cl)N1CCc2sccc2C1    86
Cl.N[C@@H]1C[C@H]1c1ccccc1 (racemic) [Tranylcypromine (2-PCPA) HCl]    110
Clc1ccc(C(Cn2ccnc2)OCc2ccsc2Cl)c(Cl)c1 (stereo not drawn)    92
CC(C)NC[C@H](O)COc1ccc(CCOCC2CC2)cc1.Cl [Levobetaxolol HCl]    99
C[C@]12CCC(=O)C(O)=C1CC[C@@H]1[C@@H]2CC[C@]2(C)C(=O)CC[C@@H]12    123

Okay, here is my list. What is % Phosphatase Activity (compared to DMSO) PRL-2 for each of these?
1. Clc1ccc2nsnc2c1NC1=NCCN1 [Tizanidine HCl]
2. CCc1cc(C(N)=S)ccn1 [Ethionamide]

Response line:
1. 92
2. 101

Okay, here is my list. What is % Phosphatase Activity (compared to DMSO) PRL-2 for each of these?
1. Cc1cc(NS(=O)(=O)c2ccc(N)cc2)no1
2. C1CNCCN1
3. O=P1(N(CCCl)CCCl)NCCCO1 (stereo not drawn) [Cyclophosphamide Monohydrate]
4. Cn1cnc([N+](=O)[O-])c1Sc1ncnc2nc[nH]c12

Response line:
1. 96
2. 112
3. 105
4. 107

Okay, here is my list. What is % Phosphatase Activity (compared to DMSO) PRL-2 for each of these?
1. CC(C)NCC(O)COc1ccc(CCOCC2CC2)cc1.Cl (stereo not drawn) [Betaxolol hydrochloride (Betoptic)]
2. NNc1nncc2ccccc12 [Hydralazine HCl]
3. CCCN[C@H]1CCc2nc(N)sc2C1 [Pramipexole dihydrochloride monohydrate]
4. N[C@@H](CCC(=O)N[C@@H](CS)C(=O)NCC(=O)O)C(=O)O
5. CCCCC(CC)COC(=O)CC(C(=O)OCC(CC)CCCC)S(=O)(=O)O (stereo not drawn) [Docusate Sodium, reference compound]
6. Nc1c2c(nc3ccccc13)CCCC2 [Tacrine HCl]
7. NC1=NCC2c3ccccc3Cc3ccccc3N12 (stereo not drawn) [Epinastine HCl]

Response line:
1. 99
2. 85
3. 98
4. 87
5. 63
6. 89
7. 109

Okay, here is my list. What is % Phosphatase Activity (compared to DMSO) PRL-2 for each of these?
1. C#CCN[C@@H]1CCc2ccccc21 [Rasagiline Mesylate]
2. CCCN[C@H]1CCc2nc(N)sc2C1 [Pramipexole]

Response line:
1: 130; 2: 106

Okay, here is my list. What is % Phosphatase Activity (compared to DMSO) PRL-2 for each of these?
1. CS(=O)(=O)Nc1ccc([N+](=O)[O-])cc1Oc1ccccc1 [Nimesulide]
2. Cc1c(-c2cnccn2)ssc1=S
3. CN1CCC[C@H]1c1cccnc1.O=C(O)C(O)C(O)C(=O)O.O=C(O)C(O)C(O)C(=O)O [Nicotine Ditartrate]
4. O=C(O)c1cccnc1
5. O=C1CN(/N=C/c2ccc([N+](=O)[O-])o2)C(=O)N1
6. c1ccc(C2CN3CCSC3=N2)cc1 (single isomer, unassigned; (-)) [(-)-Tetramisole]

Response line:
[83, 73, 96, 94, 63, 92]

Okay, here is my list. What is % Phosphatase Activity (compared to DMSO) PRL-2 for each of these?
1. CC(C)(C(=O)O)c1ccc(C(O)CCCN2CCC(C(O)(c3ccccc3)c3ccccc3)CC2)cc1 (stereo not drawn) [Fexofenadine HCl]
2. CSc1ccc2c(c1)N(CCC1CCCCN1C)c1ccccc1S2 (stereo not drawn) [Thioridazine HCl]

Response line:
92
104

Okay, here is my list. What is % Phosphatase Activity (compared to DMSO) PRL-2 for each of these?
1. CNCC[C@H](Oc1cccc2ccccc12)c1cccs1 [Duloxetine HCl]
2. CNC[C@H](O)c1ccc(O)c(O)c1 [Epinephrine Bitartrate]

Response line:
1. 107
2. 90

---

For each record, write down the corresponding % Phosphatase Activity (compared to DMSO) PRL-2.
# targetUnderTest: recombinant PRL-2 (Homo sapiens)
# Construct: 6xHis (N, cleaved yes); made in house; host or cells: E. coli One Shot BL21 Star
# experimentalProtocol: In vitro phosphatase assay (DiFMUP hydrolysis), PRL-2;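 also: PRL-2 activity read as DiFMUP hydrolysis after 20 min at room temperature with drug, enzyme first pre-reduced at 4 °C for 20 min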
# Type: biochemical
# experimentalContext: FDA-approved drug screen; compared to DMSO
Where a name gives a salt, the structure may show the parent alone.
Give bare numbers, in %.

Use the examples below as a reference point.
CC(C(=O)O)c1ccc2c(c1)Cc1cccnc1O2 (centres unmarked) [Pranoprofen]    87
C=CC[C@]1(O)CC[C@H]2[C@@H]3CCC4=CC(=O)CCC4=C3C=C[C@@]21C [Altrenogest]    178
OC[C@H]1OC(O)[C@H](O)[C@@H](O)[C@@H]1O (some centres unmarked) [Dextrose]    113
Nc1nc2[nH]cc(CCc3ccc(C(=O)N[C@@H](CCC(=O)[O-])C(=O)[O-])cc3)c2c(=O)[nH]1.Nc1nc2[nH]cc(CCc3ccc(C(=O)N[C@@H](CCC(=O)[O-])C(=O)[O-])cc3)c2c(=O)[nH]1.O.O.O.O.O.[Na+].[Na+].[Na+].[Na+] [Pemetrexed Disodium Hydrate]    101
[H]/N=C(\N/C(=N/[H])NCCCCCCNC(=N)NC(=N)Nc1ccc(Cl)cc1)Nc1ccc(Cl)cc1 [Chlorhexidine HCl]    112
O=C(c1cc(Cc2n[nH]c(=O)c3ccccc23)ccc1F)N1CCN(C(=O)C2CC2)CC1 [Olaparib (AZD2281, Ku-0059436)]    101
C[N+]1(C)[C@@H]2C[C@@H](OC(=O)[C@H](CO)c3ccccc3)C[C@H]1[C@@H]1O[C@@H]12 [Methscopolamine]    107
OC(CCCN1CCCCC1)(c1ccccc1)c1ccccc1 [Diphenidol HCl]    115
NNC(=O)c1ccncc1 [Isoniazid]    94
CCC(=O)NS(=O)(=O)c1ccc(-c2c(-c3ccccc3)noc2C)cc1 [Parecoxib]    84

Okay, here is my list. What is % Phosphatase Activity (compared to DMSO) PRL-2 for each of these?
1. NCC1(CC(=O)O)CCCCC1 [Gabapentin]
2. CN(C)CCOC(C)(c1ccccc1)c1ccccn1 (centres unmarked) [Doxylamine Succinate]
3. NC(=O)N1c2ccccc2C=Cc2ccccc21 [Carbamazepine]
4. CN(C)c1ccc(C(=C2C=CC(=[N+](C)C)C=C2)c2ccc(N(C)C)cc2)cc1 [Crystal Violet]
5. Nc1nc2[nH]cc(CCc3ccc(C(=O)N[C@@H](CCC(=O)O)C(=O)O)cc3)c2c(=O)[nH]1 [Pemetrexed]
6. CC1CC(OC(=O)C(O)c2ccccc2)CC(C)(C)C1 (centres unmarked) [Cyclandelate]
7. NC(=O)CC[C@H](N)C(=O)O [L-Glutamine]
8. CO[C@@]1(NC(=O)C(C(=O)O)c2ccc(O)cc2)C(=O)N2C(C(=O)O)=C(CSc3nnnn3C)CO[C@@H]21 (some centres unmarked) [Moxalactam Disodium]

Response line:
1. 92
2. 83
3. 112
4. 86
5. 86
6. 84
7. 77
8. 97

Okay, here is my list. What is % Phosphatase Activity (compared to DMSO) PRL-2 for each of these?
1. CC(N)C12CC3CC(CC(C3)C1)C2 (centres unmarked) [Rimantadine]
2. CNC(=O)[C@H](Cc1c[nH]c2ccccc12)NC(=O)[C@@H](CC(=O)NO)CC(C)C [Ilomastat (GM6001, Galardin)]
3. C[C@H](Oc1ccc(S(C)(=O)=O)cc1C(=O)N1CCN(c2ncc(C(F)(F)F)cc2F)CC1)C(F)(F)F [Bitopertin]
4. Nc1nccs1 [Aminothiazole]
5. Cc1c(OCC(F)(F)F)ccnc1C[S+]([O-])c1nc2ccccc2[nH]1 (centres unmarked) [Lansoprazole]
6. Oc1ccc(/C=C/c2cc(O)cc(O)c2)cc1 [Resveratrol]

Response line:
1: 106; 2: 80; 3: 73; 4: 103; 5: 92; 6: 112

Okay, here is my list. What is % Phosphatase Activity (compared to DMSO) PRL-2 for each of these?
1. COc1cc2nc(N(C)CCCNC(=O)C3CCCO3)nc(N)c2cc1OC (centres unmarked) [Alfuzosin HCl]
2. CCCNC(C)C(=O)Nc1c(C)csc1C(=O)OC (centres unmarked) [Articaine HCl]
3. Cc1cccc(C)c1OCC(=O)N[C@@H](Cc1ccccc1)[C@@H](O)C[C@H](Cc1ccccc1)NC(=O)[C@H](C(C)C)N1CCCNC1=O [Lopinavir]
4. CN(C)Cc1ccc(S(=O)(=O)n2ccc(/C=C/C(=O)NO)c2)cc1 [Resminostat]
5. CC(C)CN(C[C@@H](O)[C@H](Cc1ccccc1)NC(=O)O[C@H]1CO[C@H]2OCC[C@H]21)S(=O)(=O)c1ccc(N)cc1.CCO [Darunavir Ethanolate]
6. CN(Cc1cnc2nc(N)nc(N)c2n1)c1ccc(C(=O)N[C@@H](CCC(=O)O)C(=O)O)cc1 [Methotrexate]
7. C#C[C@]1(OC(C)=O)CC[C@H]2[C@@H]3CCC4=C[C@@H](OC(C)=O)CC[C@@H]4[C@H]3CC[C@@]21C [Ethynodiol diacetate]

Response line:
[536, 109, 101, 113, 81, 83, 112]

Prompt line: Recorded % Phosphatase Activity (compared to DMSO) PRL-2 for CCS(=O)(=O)N1CCN(c2ccc(Nc3ncc(C(N)=O)c(NC4CC4)n3)cc2)CC1 [Cerdulatinib (PRT062070, PRT2070)] , please?
Response line: 82
